# Species on record: Rattus norvegicus
# Assay info: DrugMatrix - Regimen: Daily Repeat
# Type: toxicity, organism-based, Sprague-Dawley
# Set-up: regimen Daily Repeat, gender Male, age 6-8 weeks
# Experimental setup: in vivo, po, 0 mg/kg, 120 h, tissue Blood, route oral GAVAGE, dose level Control, time 5 day, vehicle .5 % CMC
// reported HEMOGLOBIN per item

- Compound: "COc1c(C)c2c(c(O)c1C/C=C(\\C)CCC(=O)OCCN1CCOCC1)C(=O)OC2 [MYCOPHENOLATE MOFETIL]"
  HEMOGLOBIN / G/DL: 13.63
- Compound: "CN1CCC[C@@H]1CCO[C@](C)(c1ccccc1)c1ccc(Cl)cc1"
  HEMOGLOBIN / G/DL: 13.63
- Compound: "CC(C)[C@H](N)C(=O)OCCOCn1cnc2c(=O)[nH]c(N)nc21"
  HEMOGLOBIN / G/DL: 13.22
- Compound: "CCOC(=O)OC(C)OC1=C(C(=O)Nc2ccccn2)N(C)S(=O)(=O)c2ccccc21 (centres undefined)"
  HEMOGLOBIN / G/DL: 12.73
- Compound: "CN1C(C(=O)Nc2ccccn2)=C(O)c2ccccc2S1(=O)=O"
  HEMOGLOBIN / G/DL: 14.48
- Compound: "CCc1cccc2c3c([nH]c12)C(CC)(CC(=O)O)OCC3 (centres undefined)"
  HEMOGLOBIN / G/DL: 13.98
- Compound: "O=c1[nH]cc(F)c(=O)[nH]1"
  HEMOGLOBIN / G/DL: 13.53
- Compound: "C[C@]12CCC(=O)C=C1CC[C@@H]1[C@@H]2C(=O)C[C@@]2(C)[C@H]1CC[C@]2(O)C(=O)CO"
  HEMOGLOBIN / G/DL: 13.98
- Compound: "COC(=O)c1ccc(O)cc1"
  HEMOGLOBIN / G/DL: 14.08
- Compound: "CC(/C=C1\\SC(=S)N(CC(=O)O)C1=O)=C\\c1ccccc1"
  HEMOGLOBIN / G/DL: 13.63
- Compound: "Brc1ccccc1"
  HEMOGLOBIN / G/DL: 12.73
- Compound: "CC[C@H]1OC(=O)[C@H](C)[C@@H](O[C@H]2C[C@@](C)(OC)[C@@H](O)[C@H](C)O2)[C@H](C)[C@@H](O[C@@H]2O[C@H](C)C[C@H](N(C)C)[C@H]2O)[C@](C)(O)C[C@@H](C)/C(=N\\OCOCCOC)[C@H](C)[C@@H](O)[C@]1(C)O"
  HEMOGLOBIN / G/DL: 13.98
- Compound: "O=C1CCc2cc(OCCCCc3nnnn3C3CCCCC3)ccc2N1"
  HEMOGLOBIN / G/DL: 14.1
- Compound: "CCc1ccc(C(=O)C(C)CN2CCCCC2)cc1 (centres undefined)"
  HEMOGLOBIN / G/DL: 13.65
- Compound: "Cc1c(-c2ccccc2)oc2c(C(=O)OCCN3CCCCC3)cccc2c1=O [FLAVOXATE]"
  HEMOGLOBIN / G/DL: 14.27
- Compound: "CCC[C@@H]1C[C@@H](C(=O)N[C@@H]([C@H]2O[C@H](SC)[C@H](O)[C@@H](O)[C@H]2O)[C@@H](C)O)N(C)C1"
  HEMOGLOBIN / G/DL: 14.27
- Compound: "CC1(C)[C@H]2CC[C@]1(C)C(=O)C2 [(-)-CAMPHOR]"
  HEMOGLOBIN / G/DL: 13.4
- Compound: "NCC(=O)O"
  HEMOGLOBIN / G/DL: 14.82
- Compound: "O=c1cc(-c2ccccc2)oc2c1ccc1ccccc12"
  HEMOGLOBIN / G/DL: 15.62

src = ChEMBL document CHEMBL3885881
